run-description: Acidity
Assay type: physicochemical
test-settings: aqueous 0.15 M KCl, with or without methanol cosolvent
parameter: pKa

>>> endpoint_value("CONC(=O)c1n[nH]c2ccccc12 [Compound 1a, O-methyl indazole-3-hydroxamic acid]")
8.43
>>> endpoint_value("CONC(=O)c1nc2ccccc2s1 [Compound 4a, O-methyl benzothiazole-2-hydroxamic acid]")
6.34
>>> endpoint_value("CONC(=O)c1nc2ccccc2[nH]1 [Compound 2a, O-methyl benzimidazole-2-hydroxamic acid]")
7.21
>>> endpoint_value("CONC(=O)c1nsc2ccccc12")
7.44
